Kindly supply the reported residual kinase activity, DYRK1A values for the records listed here.
Molecular target: DYRK1A (Homo sapiens, UniProt Q13627)
Experiment: DYRK 1A assay (kinase profiling)
Format: biochemical
Conditions: 100 micromolar inhibitor concentration; 100 is no change
Give bare numbers.

O=C(Nc1nc2ccc(F)cc2s1)c1ccccc1 = 11
CC(=O)Nc1nc2ccc(F)cc2s1 = 12
O=C(Nc1nc2cc(O)ccc2s1)c1cccnc1 = 29
O=C(Nc1nc2ccc(C(F)(F)F)cc2s1)c1ccccc1 = 9
O=C(Nc1nc2ccc(O)cc2s1)c1cccnc1 = 8

Please give residual kinase activity, DYRK1A for each item listed below.
1. O=C(Nc1nc2cc(O)ccc2s1)c1ccccc1
2. O=C(Nc1nc2ccc(O)cc2s1)c1ccccn1
3. COc1ccc2sc(NC(=O)c3ccccc3)nc2c1
4. O=C(Nc1nc2ccc(O)cc2s1)c1ccccc1

(A)
6
33
30
2

// input: 6 compounds below; output: residual kinase activity, DYRK1A for each
1. COc1ccc2sc(NC(=O)c3cccc(C(N)=O)c3)nc2c1
2. O=C(Nc1nc2cc(O)ccc2s1)c1ccncc1
3. COc1ccc2nc(NC(=O)c3ccccc3)sc2c1
4. CC(=O)Nc1nc2cc(C)ccc2s1
5. N#Cc1ccc2nc(NC(=O)c3ccccc3)sc2c1
6. O=C(Nc1nc2ccc(O)cc2s1)c1ccncc1

(A)
51
50
6
23
3
15

Could you tell me residual kinase activity, DYRK1A for each of these compounds? They are listed below.
1. O=C(Nc1nc2cc(O)ccc2s1)c1ccccn1
2. COC(=O)c1cccc(C(=O)Nc2nc3cc(OC)ccc3s2)c1
3. COC(=O)c1cccc(C(=O)Nc2nc3ccc(F)cc3s2)c1
4. CC(=O)Nc1nc2ccccc2s1

(A)
25
51
13
43
